I'd appreciate it if you could supply Hepatic microsome CLhint (Human) In the absence of NADPH values for the items below.
Assay: Metabolic stability in human hepatic microsome
Format: in vitro ADME
Positions of bridges follow the written chain, without caps; N, C: chain ends. Non-standard residues stand in square brackets, D forms with d. Residues, ends and D or L forms follow the SMILES beside them. *: point of attachment. NMeF = CN[C@@H](Cc1ccccc1)C(=O)O; NMeI = CC[C@H](C)[C@H](NC)C(=O)O; NMeL = CN[C@@H](CC(C)C)C(=O)O; NMeA = CN[C@@H](C)C(=O)O; Piperidide = C1CCN(*)CC1; Sar = CNCC(=O)O; tBu = CC(C)(C)*
Numbers only, in ul/min/mg Protein.

Past entries and their recorded results:
Given item CC(C)C[C@H]1C(=O)N[C@@H](COC(C)(C)C)C(=O)N[C@H](C(=O)N2CCCCC2)CCC(=O)N(C)[C@@H](C)C(=O)N(C)[C@@H](C)C(=O)N(C)[C@@H](Cc2ccccc2)C(=O)N(C)[C@@H](CC(C)C)C(=O)N[C@@H]([C@@H](C)O)C(=O)N(C)CC(=O)N1C [Compound P-122] ([NMeA][NMeA][NMeF][NMeL]T[Sar][NMeL]S(tBu)E-Piperidide; lactam N-9) , the value recorded as its Hepatic microsome CLhint (Human) In the absence of NADPH is 1

Given item CC[C@H](C)[C@H]1C(=O)N[C@H](C(=O)N2CCCCC2)CC(=O)N[C@@H](C)C(=O)N(C)[C@@H](Cc2ccccc2)C(=O)N(C)[C@@H](CC(C)C)C(=O)N[C@@H]([C@@H](C)O)C(=O)N(C)CC(=O)N(C)[C@@H](CC(C)C)C(=O)N[C@@H](COC(C)(C)C)C(=O)N1C [Compound P-123] (A[NMeF][NMeL]T[Sar][NMeL]S(tBu)[NMeI]D-Piperidide; lactam N-9) , the value recorded as its Hepatic microsome CLhint (Human) In the absence of NADPH is 0

Given item CC(C)C[C@H]1C(=O)N[C@@H](COC(C)(C)C)C(=O)N[C@H](C(=O)N2CCCCC2)CSCC(=O)N(C)[C@@H](C)C(=O)N(C)[C@@H](Cc2ccccc2)C(=O)N(C)[C@@H](CC(C)C)C(=O)N[C@@H]([C@@H](C)O)C(=O)N(C)CC(=O)N1C [Compound P-102] ({CH2CO}-[NMeA][NMeF][NMeL]T[Sar][NMeL]S(tBu)C-Piperidide; thioether N-8) , the value recorded as its Hepatic microsome CLhint (Human) In the absence of NADPH is 3

Kindly give each listed record's Hepatic microsome CLhint (Human) In the absence of NADPH.
1. CC(C)C[C@H]1C(=O)N[C@@H](COC(C)(C)C)C(=O)N[C@H](C(=O)N2CCCCC2)CC(=O)N[C@@H](C)C(=O)N(C)[C@@H](C)C(=O)N(C)[C@@H](Cc2ccccc2)C(=O)N(C)[C@@H](CC(C)C)C(=O)N[C@@H]([C@@H](C)O)C(=O)N(C)CC(=O)N1C [Compound P-119] (A[NMeA][NMeF][NMeL]T[Sar][NMeL]S(tBu)D-Piperidide; lactam N-9)
2. CC[C@H](C)[C@H]1C(=O)N[C@H](C(=O)N2CCCCC2)CSCC(=O)N(C)[C@@H](C)C(=O)N(C)[C@@H](Cc2ccccc2)C(=O)N(C)[C@@H](CC(C)C)C(=O)N[C@@H]([C@@H](C)O)C(=O)N(C)CC(=O)N(C)[C@@H](CC(C)C)C(=O)N[C@@H](COC(C)(C)C)C(=O)N1C [Compound P-109] ({CH2CO}-[NMeA][NMeF][NMeL]T[Sar][NMeL]S(tBu)[NMeI]C-Piperidide; thioether N-9)

Result:
[5, 11]

Given item CC[C@H](C)[C@H]1C(=O)N[C@H](C(=O)N2CCCCC2)CC(=O)N[C@@H](C)C(=O)N(C)[C@@H](C)C(=O)N(C)[C@@H](Cc2ccccc2)C(=O)N(C)[C@@H](CC(C)C)C(=O)N[C@@H]([C@@H](C)O)C(=O)N(C)CC(=O)N(C)[C@@H](CC(C)C)C(=O)N[C@@H](COC(C)(C)C)C(=O)N1C [Compound P-125] (A[NMeA][NMeF][NMeL]T[Sar][NMeL]S(tBu)[NMeI]D-Piperidide; lactam N-10) , the value recorded as its Hepatic microsome CLhint (Human) In the absence of NADPH is 1

The values you see were collected from patent US9409952B2.
